molecular target: CSF1R (FMS) (Homo sapiens); assay: Z'-LYTE SelectScreen biochemical kinase assay CSF1R (FMS); conditions: 10 μmolar compound concentration; ATP at Km app; read-out: CSF1R (FMS) inhibition
Sequence (P07333 20-972): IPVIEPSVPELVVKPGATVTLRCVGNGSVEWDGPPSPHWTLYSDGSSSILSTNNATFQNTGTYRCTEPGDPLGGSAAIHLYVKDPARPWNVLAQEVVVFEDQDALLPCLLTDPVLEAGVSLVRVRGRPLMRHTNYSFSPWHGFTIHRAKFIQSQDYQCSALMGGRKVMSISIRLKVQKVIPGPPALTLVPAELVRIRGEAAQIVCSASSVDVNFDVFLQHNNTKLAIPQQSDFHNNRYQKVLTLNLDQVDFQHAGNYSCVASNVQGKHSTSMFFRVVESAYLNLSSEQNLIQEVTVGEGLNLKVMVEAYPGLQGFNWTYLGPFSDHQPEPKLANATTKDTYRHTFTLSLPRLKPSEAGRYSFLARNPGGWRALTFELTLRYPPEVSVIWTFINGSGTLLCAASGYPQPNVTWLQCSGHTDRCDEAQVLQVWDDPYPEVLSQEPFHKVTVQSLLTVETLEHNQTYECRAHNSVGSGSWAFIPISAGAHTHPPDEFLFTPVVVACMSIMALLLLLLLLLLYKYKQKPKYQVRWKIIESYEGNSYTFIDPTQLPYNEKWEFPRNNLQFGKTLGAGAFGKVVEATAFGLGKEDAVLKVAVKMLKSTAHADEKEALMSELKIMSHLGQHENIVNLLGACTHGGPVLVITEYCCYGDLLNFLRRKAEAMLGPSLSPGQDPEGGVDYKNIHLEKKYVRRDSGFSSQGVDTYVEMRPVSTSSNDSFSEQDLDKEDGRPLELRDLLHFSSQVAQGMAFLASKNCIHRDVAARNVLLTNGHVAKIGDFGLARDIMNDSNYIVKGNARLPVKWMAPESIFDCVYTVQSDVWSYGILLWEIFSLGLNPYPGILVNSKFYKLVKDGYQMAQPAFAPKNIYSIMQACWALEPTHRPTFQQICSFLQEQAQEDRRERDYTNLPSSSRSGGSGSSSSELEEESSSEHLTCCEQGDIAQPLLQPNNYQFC
Collected inhibition at 10 µM values appear next to each entry.

COMPOUND	inhibition at 10 µM
CCn1ncc2c1CC[C@@H](Nc1nc3c(-c4ccc(F)c(Cl)c4)cccn3n1)C2	< 40%
Cc1cc(F)ccc1-c1cccn2nc(NC3CCc4c(cnn4CC(C)C)C3)nc12 (centres unmarked)	40 to 80%
CCn1ncc2c1CCC(Nc1nc3c(-c4ccc(F)cc4C)cccn3n1)C2 (centres unmarked)	< 40%
CCn1ncc2c1C(C)CC(Nc1nc3c(-c4cc(F)c(F)c(F)c4)cccn3n1)C2 (centres unmarked)	< 40%
Cc1cc(F)ccc1-c1cccn2nc(Nc3ccc4c(cnn4C)c3)nc12	> 80%

[in] Please report the measured inhibition at 10 µM for CCCCn1ncc2c1CCC(Nc1nc3c(-c4ccc(F)cc4C)cccn3n1)C2 (centres unmarked)
[out] < 40%

[in] Please report the measured inhibition at 10 µM for CCn1ncc2c1CC[C@H](Nc1nc3c(-c4ccc(F)c(Cl)c4)cccn3n1)C2
[out] < 40%

[in] Please report the measured inhibition at 10 µM for CCn1ncc2c1CCC(Nc1nc3c(-c4ccccc4C)cccn3n1)C2 (centres unmarked)
[out] 40 to 80%
